These data points were gathered from patent US9758492B2.

Target or system: IDO (Homo sapiens, UniProt P14902)
Test protocol: LLE_IDO_ABS_DR (IDO assay)
Observable: pIC50
Give bare numbers, as −log10 of the molar value.

Examples with answers:
Molecular string: Cc1ccc(NC(=O)Nc2cc(-c3ccccc3C(=O)O)ccc2N(CC(C)C)CC(F)(F)F)cc1
Value reported: 7.05
--
Molecular string: Cc1ccc(NC(=O)Nc2cc(-c3ccccc3-c3nnn[nH]3)ccc2N(CC(C)C)C2CCC2)cc1
Value reported: 8.00
--
Molecular string: CC(C)CN(CC(C)C)c1ccc(-c2ccccc2-c2nnn[nH]2)cc1NC(=O)Nc1c(F)cc(Cl)cc1F
Value reported: 9.12

Please give pIC50, item by item, for the list that follows.
1. Cc1ccc(NC(=O)Nc2cc(-c3ccccc3-c3nnn[nH]3)ccc2N(CCC(F)(F)F)Cc2ccc(OC(F)(F)F)cc2)cc1
2. CC(C)CN(c1ccc(-c2ccccc2-c2nnn[nH]2)cc1NC(=O)Nc1ccccc1F)C1CCCCC1
3. CC(C)CN(CC(C)C)c1ccc(-c2cc(F)ccc2C(=O)O)cc1NC(=O)Nc1ccc(F)cc1F

A:
1: 8.76; 2: 8.59; 3: 8.00

Recorded pIC50 for [2H]C([2H])(C(C)C)N(c1ccc(-c2sccc2C(=O)O)cc1NC(=O)Nc1ccccc1F)C1CCCCC1 on IDO (Homo sapiens, UniProt P14902) was 8.23

---

Could you please report measured IC50 for the items listed next?
Target or system: Human IDO1 (Homo sapiens)
Sequence (P14902 whole entry): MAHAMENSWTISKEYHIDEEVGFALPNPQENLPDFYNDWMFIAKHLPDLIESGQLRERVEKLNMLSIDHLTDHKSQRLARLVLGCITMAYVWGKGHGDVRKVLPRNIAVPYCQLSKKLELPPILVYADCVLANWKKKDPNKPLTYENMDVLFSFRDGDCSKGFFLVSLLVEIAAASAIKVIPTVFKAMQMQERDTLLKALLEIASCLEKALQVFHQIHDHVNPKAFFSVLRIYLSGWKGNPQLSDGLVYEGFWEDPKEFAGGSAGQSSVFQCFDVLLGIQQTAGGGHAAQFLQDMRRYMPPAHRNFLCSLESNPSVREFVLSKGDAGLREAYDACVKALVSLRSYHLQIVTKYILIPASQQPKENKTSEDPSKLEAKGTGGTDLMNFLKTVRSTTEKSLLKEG
Test protocol: IDO Kynurenine Assay with Human IDO1/HEK293 Cells
Condition summary: read-out: HEK human IDO-1 (IC50)
One number for each entry, in nM.

Examples with answers:
Molecular string: [2H]C([2H])(C(C)C)N(c1ccc(-c2ccccc2C(=O)O)cc1NC(=O)Nc1ccc(C)cc1)C([2H])([2H])C(C)C
Target or system: Human IDO1 (Homo sapiens)
Observable: IC50
Unit info: nM
Value reported: 10
//
Molecular string: Cc1ccc(NC(=O)Nc2cc(-c3ccccc3-c3nnn[nH]3)ccc2N(CCOC(C)C)CC(C)C)cc1
Target or system: Human IDO1 (Homo sapiens)
Observable: IC50
Unit info: nM
Value reported: 200
//
Molecular string: CCOc1ccc(NC(=O)Nc2cc(-c3ccccc3-c3nnn[nH]3)ccc2N(CC(C)C)CC(C)C)cc1
Target or system: Human IDO1 (Homo sapiens)
Observable: IC50
Unit info: nM
Value reported: 2.35

Please give IC50, item by item, for the list that follows.
1. CCOc1ccc(NC(=O)Nc2cc(-c3cc(C)ccc3C(=O)O)ccc2N(CC(C)C)CC(C)C)cc1
2. O=C(Nc1ccc(OC(F)(F)F)cc1)Nc1cc(-c2ccccc2-c2nnn[nH]2)ccc1N(CCC(F)(F)F)Cc1ccc(OC(F)(F)F)cc1
3. Cc1ccc(NC(=O)Nc2cc(-c3cc(F)ccc3C(=O)O)c(F)cc2N(CC(C)C)C2CCC(F)(F)CC2)cc1

A:
1: 390; 2: 10; 3: 6.91

// field: IC50; key: Cc1ccc(NC(=O)Nc2cc(-c3cc(C)ccc3C(=O)O)ccc2N(CC(C)C)CC(C)C)cc1 ; value = 300

---

Target or system: Human IDO1 (Homo sapiens)
Test protocol: IDO Kynurenine Assay with Human IDO1/HEK293 Cells
Condition summary: read-out: HEK human IDO-1 (IC50)
Could you please report measured IC50 for the items listed next?
Give bare numbers, in nM.

Examples with answers:
Molecular string: CC(C)CN(CC(C)C)c1ccc(-c2ccccc2-c2nnn[nH]2)cc1NC(=O)Nc1ccc(Br)cc1F
Value reported: 1.78
--
Molecular string: CC(C)CN(Cc1ccccc1)c1ccc(-c2ccccc2-c2nnn[nH]2)cc1NC(=O)Nc1ccc(C2CC2)cc1
Value reported: 1830
--
Molecular string: C=C(C)CN(CCCC(F)(F)F)c1ccc(-c2ccccc2C(=O)O)cc1NC(=O)Nc1ccc(C)cc1
Value reported: 4.63
--
Molecular string: CCc1ccc(NC(=O)Nc2cc(-c3ccccc3-c3nnn[nH]3)ccc2N(CC(C)C)CC(C)C)cc1
Value reported: 7.09
--
Molecular string: COc1cccc(-c2ccc(N(CC(C)C)CC(C)C)c(NC(=O)Nc3ccc(C#N)nc3)c2)c1C(=O)O
Value reported: 1260

Please give IC50, item by item, for the list that follows.
1. CCC(CC)N(CC(C)C)c1ccc(-c2cc(F)ccc2C(=O)O)cc1NC(=O)Nc1ccc(Cl)cc1F
2. CC(C)CN(c1c(F)cc(-c2ccccc2C(=O)O)cc1NC(=O)Nc1ccc(Cl)cc1F)C1CCCCC1
3. CCC(CC)N(CC(C)C)c1ccc(-c2ccccc2-c2nnn[nH]2)cc1NC(=O)Nc1ccc(Cl)cc1F
4. CC(C)CN(c1c(F)cc(-c2cc(F)ccc2C(=O)O)cc1NC(=O)Nc1ccccc1F)C1CCCCC1
5. CC(C)CN(c1cc(F)c(-c2cc(F)ccc2C(=O)O)cc1NC(=O)Nc1ccc(N2CCOCC2)cc1)C1CCCCC1

A:
1. 2.23
2. 1.67
3. 1.14
4. 3.76
5. 2720

Please give IC50, item by item, for the list that follows.
1. O=C(Nc1ccc(C2CC2)c(F)c1)Nc1cc(-c2ccccc2-c2nnn[nH]2)ccc1N(CCC(F)(F)F)Cc1ccc(OC(F)(F)F)cc1
2. Cc1ccc(NC(=O)Nc2cc(-c3cc(F)ccc3-c3nnn[nH]3)c(F)cc2N(CC(C)C)C2CCCCC2)cc1

A:
1: 2.37; 2: 3.29

Please give IC50, item by item, for the list that follows.
1. Cc1ccc(C(=O)O)c(-c2ccc(N(CC(C)C)CC(C)C)c(NC(=O)Nc3ccccc3F)c2)c1
2. Cc1ccc(NC(=O)Nc2cc(-c3ccccc3-c3nnn[nH]3)ccc2N(CCC(F)(F)F)Cc2ccc(OC(F)(F)F)cc2)cc1

A:
1: 240; 2: 0.845
